Here's what we have: IC50 numbers for Sodium-dependent serotonin transporter (Homo sapiens).

| input.smiles | IC50 |
| --- | --- |
| CN1CC[C@@]23CCCC[C@@H]2[C@@H]1Cc1ccc(C(F)F)cc13 | 0.024 µM |
| CN1CC[C@@]23CCCC[C@@H]2[C@@H]1Cc1ccc(C(F)(F)F)cc13 | 0.06 µM |
| CN1CC[C@@]23CCCC[C@@H]2[C@@H]1Cc1ccc(OC(F)F)cc13 | 0.055 µM |
| CN1CC[C@@]23CCCC[C@@H]2[C@@H]1Cc1ccc(OC(F)(F)F)cc13 | 0.031 µM |

###

assay: Half life in Sprague-Dawley rat plasma at 2.5 mg/kg, po measured after 24 hrs by LC-MS/MS analysis; type: ADME, organism-based

| input.smiles | half-life |
| --- | --- |
| [2H]C([2H])([2H])Oc1ccc2c(c1)[C@@]13CCCC[C@@H]1[C@@H](C2)N(C([2H])([2H])[2H])CC3 | 7.07 h |
| [2H]C([2H])([2H])N1CC[C@@]23CCCC[C@@H]2[C@@H]1Cc1ccc(C(F)F)cc13 | 2.65 h |
| CN1CC[C@@]23CCCC[C@@H]2[C@@H]1Cc1ccc(C(F)F)cc13 | 3.33 h |
| [2H]C([2H])([2H])N1CC[C@@]23CCCC[C@@H]2[C@@H]1Cc1ccc(OC(F)(F)F)cc13 | 2.45 h |
| COc1ccc2c(c1)[C@@]13CCCC[C@@H]1[C@@H](C2)N(C)CC3 | 2 h |
| CN1CC[C@@]23CCCC[C@@H]2[C@@H]1Cc1ccc(OC(F)(F)F)cc13 | 2.8 h |
